target: Asp-2 (Homo sapiens, UniProt P56817); assay: Asp-2 inhibitory assay; type: biochemical
Sequence (P56817 46-501): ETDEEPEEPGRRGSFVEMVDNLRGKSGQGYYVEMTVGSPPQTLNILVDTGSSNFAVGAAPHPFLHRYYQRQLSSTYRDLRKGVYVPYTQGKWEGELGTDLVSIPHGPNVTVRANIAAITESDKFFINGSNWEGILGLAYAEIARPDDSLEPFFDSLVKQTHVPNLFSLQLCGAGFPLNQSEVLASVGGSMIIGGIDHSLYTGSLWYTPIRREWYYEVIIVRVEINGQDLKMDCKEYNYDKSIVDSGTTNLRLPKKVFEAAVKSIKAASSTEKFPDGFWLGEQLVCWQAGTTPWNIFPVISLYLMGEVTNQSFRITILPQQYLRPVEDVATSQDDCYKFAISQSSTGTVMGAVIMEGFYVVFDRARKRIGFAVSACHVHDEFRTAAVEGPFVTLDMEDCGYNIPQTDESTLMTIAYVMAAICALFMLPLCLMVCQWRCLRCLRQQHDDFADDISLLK
Counter-ions that a name gives are not always drawn.
QUANTITY_NAME: IC50

Input: Which measured IC50 value corresponds to CCc1cn2c3c(cc(C(=O)N[C@@H](Cc4ccccc4)[C@H](O)CNC4CCCCC4)cc13)N(C)S(=O)(=O)CC2 [Example E7, formate salt] ?
Output: < 1000 nM
